Origin of measurements: patent EP1137645B1

Task for the reader: assign each of the following compounds its reported IC50.
- Test system: VZV strain Ellen
- PROTOCOL_NOTES: VZV antiviral (ELISA) assay
- Type: cell-based
- EXPERIMENTAL_PARAMETERS: Human alphaherpesvirus 3; VZV strain Ellen, HFF cells, ELISA; read-out: IC50 (ug/ml) VZV

State the recorded IC50 for this entry: CC(NC(=S)Nc1ccc(NC(=O)c2ccc(F)cc2)cc1)c1ccc(F)cc1 (stereo not drawn)
> 7.5 µg/mL

State the recorded IC50 for this entry: `O=C(Nc1ccc(NC(=S)Nc2ccc3[nH]nnc3c2)cc1)c1c(F)cccc1F`
> 10 µg/mL

State the recorded IC50 for this entry: `COc1ccc(NC(=S)Nc2ccc(NC(=O)c3ccccc3F)cc2)cc1I`
> 7.5 µg/mL

* * *

Task for the reader: assign each of the following compounds its reported IC50.
- Test system: HCMV recombinant mutant virus whose genome contains the prokaryotic beta-glucuronidase gene
- PROTOCOL_NOTES: microbe, parasite or virus in culture
- Type: cell-based, human cytomegalovirus
- EXPERIMENTAL_PARAMETERS: Human betaherpesvirus 5, Fibroblast, read-out: IC50 ug/ml HCMV, HCMV, human foreskin fibroblasts

State the recorded IC50 for this entry: `COc1cc(C)c(Cl)cc1NC(=S)Nc1ccc(NC(=O)c2ccccc2F)cc1`
> 10 µg/mL

State the recorded IC50 for this entry: `O=C(Nc1ccc(NC(=S)NCc2cccc(Cl)c2)cc1)c1ccccc1F`
> 10 µg/mL

State the recorded IC50 for this entry: `O=C(Nc1ccc(NC(=S)NCCOc2cccc(Cl)c2)cc1)c1ccccc1F`
> 0.5 µg/mL

State the recorded IC50 for this entry: `O=C(Nc1ccc(NC(=S)NCc2ccc(Cl)c(Cl)c2)cc1)c1ccccc1F`
> 10 µg/mL

State the recorded IC50 for this entry: `O=C(CN1CCSCC1)Nc1ccc(NC(=S)Nc2ccc(NC(=O)c3ccccc3F)cc2)cc1Cl`
> 10 µg/mL

State the recorded IC50 for this entry: `COc1cc(OC)c(NC(=S)Nc2ccc(NC(=O)c3ccc(F)c(F)c3F)cc2)cc1Cl`
> 10 µg/mL

State the recorded IC50 for this entry: `O=C(Nc1ccc(NC(=S)Nc2cc(Cl)ccc2Cl)cc1)c1ccccc1F`
> 10 µg/mL

* * *

- System: HCMV recombinant mutant virus whose genome contains the prokaryotic beta-glucuronidase gene
- PROTOCOL_NOTES: microbe, parasite or virus in culture
- Assay type: cell-based, human cytomegalovirus
- EXPERIMENTAL_PARAMETERS: Human betaherpesvirus 5, Fibroblast, read-out: IC50 ug/ml HCMV, HCMV, human foreskin fibroblasts
- Method: Microtiter plate assay. […] At 96 hours post-infection, the infected cell lysates are prepared (using 50mM sodium phosphate [pH7.0] containing 0.1% Triton X-100 and 0.1% sarkosyl) and assayed for beta-glucuronidase activity using a substrate for the enzyme which when cleaved yields either a product which can be measured colorimetrically in a spectrophotometer or fluorescently in a microfluorimeter. […]
ASSAY_ENDPOINT: IC50

State the recorded IC50 for this entry: `O=C(Nc1ccc(NC(=S)NCCCc2ccccc2)cc1)c1ccccc1F`
> 10 µg/mL

State the recorded IC50 for this entry: `COc1cc(OC)c(NC(=S)Nc2ccc(NC(=O)c3cccc4c3OCO4)cc2)cc1Cl`
> 10 µg/mL

State the recorded IC50 for this entry: `CCCCN(C)c1cc(NC(=S)Nc2ccc(NC(=O)c3ccccc3F)cc2)cc(C(F)(F)F)c1`
> 10 µg/mL

State the recorded IC50 for this entry: `CS(=O)(=O)Nc1ccc(NC(=S)Nc2ccc(NC(=O)c3ccccc3F)cc2)cc1Cl`
> 10 µg/mL

State the recorded IC50 for this entry: `COc1cc(OC)c(NC(=S)Nc2ccc(NC(=O)c3ccccc3[N+](=O)[O-])cc2)cc1Cl`
> 10 µg/mL

State the recorded IC50 for this entry: `C[C@H](NC(=S)Nc1ccc(NC(=O)c2nccc3ccccc23)cc1)c1ccc(C#N)cc1`
> 10 µg/mL

State the recorded IC50 for this entry: `COc1cc(OC)c(NC(=S)Nc2ccc(NC(=O)c3ccccc3NS(C)(=O)=O)cc2)cc1Cl`
> 10 µg/mL

State the recorded IC50 for this entry: `CN(C)c1cc(CCNC(=S)Nc2ccc(NC(=O)c3ccccc3F)cc2)cc(C(F)(F)F)c1`
> 0.5 µg/mL

State the recorded IC50 for this entry: `COc1cc(OC)c(NC(=S)Nc2ccc(NC(=O)c3ccccc3OC)cc2)cc1Cl`
> 10 µg/mL

State the recorded IC50 for this entry: `O=C(CN1CCOCC1)Nc1ccc(NC(=S)Nc2ccc(NC(=O)c3ccccc3F)cc2)cc1Cl`
> 10 µg/mL

State the recorded IC50 for this entry: `COc1cc(OC)c(NC(=S)Nc2ccc(NC(=O)c3ccccc3F)cc2Cl)cc1Cl`
> 10 µg/mL

State the recorded IC50 for this entry: `CCOc1ccc(NC(=S)Nc2ccc(NC(=O)c3ccccc3F)cc2)cc1Cl`
> 10 µg/mL

State the recorded IC50 for this entry: `CC(=O)c1cccc(NC(=S)Nc2ccc(NC(=O)c3ccccc3F)cc2)c1`
> 10 µg/mL

State the recorded IC50 for this entry: COc1cccc(C(=O)Nc2ccc(NC(=S)NC(C)c3ccc(F)cc3)cc2)c1 (centres unmarked)
> 0.5 µg/mL

State the recorded IC50 for this entry: `O=C(CN1CCCCC1)Nc1ccc(NC(=S)Nc2ccc(NC(=O)c3ccccc3F)cc2)cc1Cl`
> 10 µg/mL

State the recorded IC50 for this entry: `CN(C)c1c(Cl)cccc1NC(=S)Nc1ccc(NC(=O)c2c(F)cccc2F)cc1`
2 µg/mL

State the recorded IC50 for this entry: CC(NC(=S)Nc1ccc(NC(=O)c2ccc(N(C)C)cc2)cc1)c1ccc(F)cc1 (centres unmarked)
2.3 µg/mL

State the recorded IC50 for this entry: `CN(C)c1cc(Cl)cc(NC(=S)Nc2ccc(NC(=O)c3ccccc3F)cc2)c1`
3.2 µg/mL

State the recorded IC50 for this entry: `COC(=O)c1cccc(C(=O)Nc2ccc(NC(=S)Nc3cc(Cl)c(OC)cc3OC)cc2)c1`
> 10 µg/mL

State the recorded IC50 for this entry: `COc1cc(OC)c(NC(=S)Nc2ccc(NC(=O)c3ccccc3NC(C)=O)cc2)cc1Cl`
> 10 µg/mL
